Value source: patent US12146004B2

MIC P. aeruginosa 068 by entry:
system: Pseudomonas aeruginosa; format: cell-based

CCCCCCCCC1CNCC1C(=O)N[C@H](C(=O)N[C@@H](CCN)C(=O)N[C@H]1CCNC(=O)[C@H]([C@@H](C)O)NC(=O)[C@H](CCN)NC(=O)[C@H](CCN)NC(=O)[C@H](CC(C)C)NC(=O)[C@@H](Cc2ccc(-c3ccccc3)cc2)NC(=O)[C@H](CCN)NC1=O)C(C)O (single isomer, unassigned; isomer 1) [Example 7]
2 µg/mL

Now for a further compound.
Q: Item CC(C)C[C@@H]1NC(=O)[C@@H](CC2CCCCC2)NC(=O)[C@H](CCN)NC(=O)[C@@H](NC(=O)[C@H](CN)NC(=O)[C@@H](NC(=O)C(CCN)OCc2cccc(Cl)c2)[C@@H](C)O)CCNC(=O)[C@H]([C@@H](C)O)NC(=O)[C@H](CCN)NC(=O)[C@H](CCN)NC1=O (single isomer, unassigned; isomer 1) has what recorded MIC P. aeruginosa 068?
A: 4 µg/mL
